- Test system: HUVEC
- protocol_notes: Cytoprotective effect against high glucose-induced oxidative stress in HUVEC assessed as cell viability at 5 uM incubated by MTT assay (reference value: 72.1 to 77.9%)
- Type: functional
- experimental_setup: Homo sapiens, read-out: Activity
attribute_measured: viability at 5 µM
# include the unit after the value

Consider the following illustrative entries.
compound	observed_result
COC(=O)[C@]1(O)C(=O)[C@]2(CC=C(C)C)C[C@@H](O)C(C)(C)OC2=C1C(C)=O	104%
COC(=O)[C@@]1(O)C(=O)[C@@]2(CC=C(C)C)C[C@@H](O)C(C)(C)OC2=C1C(C)=O	101%
Oc1ccc(/C=C/c2cc(O)cc(O)c2)cc1 [RESVERATROL]	103%
COC(=O)[C@@]1(O)C(=O)[C@]2(CC=C(C)C)C[C@H](O)C(C)(C)OC2=C1C(C)=O	104%

Continue with the compound presented below.
Ask: Quick one: viability at 5 µM of COC(=O)[C@]1(O)C(=O)[C@@]2(CC=C(C)C)C[C@H](O)C(C)(C)OC2=C1C(C)=O ?
Result: 65.1%
